Give measured T1/2 for each item. Keep answers brief.
Target: T1, Dimeric Monkey Ang-2FD conjugated to human IgG1 (monkey (Macca fascicularis); human)
T1 construct: also called Monkey Ang-2FD-hFc
T1 sequence (chain, as listed by the source limits assumed): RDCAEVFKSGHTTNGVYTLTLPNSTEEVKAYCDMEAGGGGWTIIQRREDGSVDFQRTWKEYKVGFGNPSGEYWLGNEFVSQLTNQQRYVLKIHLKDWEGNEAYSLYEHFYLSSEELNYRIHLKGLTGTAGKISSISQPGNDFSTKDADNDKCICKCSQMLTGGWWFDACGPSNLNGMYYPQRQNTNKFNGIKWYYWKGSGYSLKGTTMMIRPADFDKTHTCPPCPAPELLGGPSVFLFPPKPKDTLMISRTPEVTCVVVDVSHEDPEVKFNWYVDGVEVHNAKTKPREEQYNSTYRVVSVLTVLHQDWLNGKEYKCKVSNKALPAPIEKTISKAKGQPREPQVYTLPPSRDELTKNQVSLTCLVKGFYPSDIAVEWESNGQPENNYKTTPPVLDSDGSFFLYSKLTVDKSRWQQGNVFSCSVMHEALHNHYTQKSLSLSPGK
Experiment: SPR, captured Ab, RT
From the text: Antibody was captured on a goat anti-mouse IgG polyclonal antibody surface, a goat anti-human κ polyclonal antibody (Southern Biotech, Birmingham, Ala.) surface or a goat anti-human IgG polyclonal antibody (Jackson Immuno Research Lab, West Grove, Pa.) surface created through direct amine coupling to a BIACORE™ CM5 sensor chip to form a captured antibody surface. […] Antigen-antibody binding and dissociation were monitored in real time at room temperature. […]
One number for each entry, in h.

Reference set, count: 4
{"Binder": "H1H724N (antibody, V domains shown) VH: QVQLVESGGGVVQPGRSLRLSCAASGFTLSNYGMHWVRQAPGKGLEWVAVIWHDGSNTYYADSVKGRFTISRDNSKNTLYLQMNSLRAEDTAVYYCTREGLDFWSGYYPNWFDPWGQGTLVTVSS VL: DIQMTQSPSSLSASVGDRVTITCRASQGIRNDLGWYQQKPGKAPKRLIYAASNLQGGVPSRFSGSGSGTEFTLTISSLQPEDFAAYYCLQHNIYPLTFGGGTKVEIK", "Measurement Label": "T1/2", "Observed Value": 2.88}
{"Binder": "H1H690P (antibody, V domains shown) VH: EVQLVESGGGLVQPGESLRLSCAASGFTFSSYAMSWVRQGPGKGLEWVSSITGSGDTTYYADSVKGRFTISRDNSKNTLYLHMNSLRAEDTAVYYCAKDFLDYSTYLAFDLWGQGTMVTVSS VL: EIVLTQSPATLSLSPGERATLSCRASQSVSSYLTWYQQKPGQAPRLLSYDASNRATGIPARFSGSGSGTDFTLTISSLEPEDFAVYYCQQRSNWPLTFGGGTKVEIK", "Measurement Label": "T1/2", "Observed Value": 3.25}
{"Binder": "H1H728N (antibody, V domains shown) VH: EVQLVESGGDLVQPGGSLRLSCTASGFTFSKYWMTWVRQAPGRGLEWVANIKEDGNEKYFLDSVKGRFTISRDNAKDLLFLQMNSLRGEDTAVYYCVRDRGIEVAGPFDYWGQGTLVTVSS VL: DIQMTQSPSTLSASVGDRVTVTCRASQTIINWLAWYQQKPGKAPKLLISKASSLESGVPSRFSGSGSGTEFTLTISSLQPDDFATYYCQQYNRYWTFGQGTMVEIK", "Measurement Label": "T1/2", "Observed Value": 1.28}
{"Binder": "H2M730N (antibody, V domains shown) VH: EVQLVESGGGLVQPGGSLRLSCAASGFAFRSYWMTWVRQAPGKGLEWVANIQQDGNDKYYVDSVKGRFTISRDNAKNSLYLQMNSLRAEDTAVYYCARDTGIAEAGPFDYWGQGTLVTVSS VL: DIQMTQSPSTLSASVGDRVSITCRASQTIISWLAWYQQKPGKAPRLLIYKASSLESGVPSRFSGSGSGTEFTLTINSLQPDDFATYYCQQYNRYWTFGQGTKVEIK", "Measurement Label": "T1/2", "Observed Value": 0.61}

Now examine the next entry.
Ask | Entry under review: H2M742N (antibody, V domains shown) VH: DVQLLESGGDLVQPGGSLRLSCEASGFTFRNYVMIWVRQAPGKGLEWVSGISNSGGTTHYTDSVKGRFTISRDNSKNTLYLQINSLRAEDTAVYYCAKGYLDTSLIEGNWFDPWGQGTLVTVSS VL: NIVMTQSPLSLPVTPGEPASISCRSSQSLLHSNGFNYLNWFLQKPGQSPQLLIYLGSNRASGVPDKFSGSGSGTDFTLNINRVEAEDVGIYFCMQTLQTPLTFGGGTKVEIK . Reported T1/2?
Reply | 0.475
